# TARGET SYSTEM: Alpha-1D adrenergic receptor (Homo sapiens, UniProt P25100)
# Sequence (P25100 whole entry): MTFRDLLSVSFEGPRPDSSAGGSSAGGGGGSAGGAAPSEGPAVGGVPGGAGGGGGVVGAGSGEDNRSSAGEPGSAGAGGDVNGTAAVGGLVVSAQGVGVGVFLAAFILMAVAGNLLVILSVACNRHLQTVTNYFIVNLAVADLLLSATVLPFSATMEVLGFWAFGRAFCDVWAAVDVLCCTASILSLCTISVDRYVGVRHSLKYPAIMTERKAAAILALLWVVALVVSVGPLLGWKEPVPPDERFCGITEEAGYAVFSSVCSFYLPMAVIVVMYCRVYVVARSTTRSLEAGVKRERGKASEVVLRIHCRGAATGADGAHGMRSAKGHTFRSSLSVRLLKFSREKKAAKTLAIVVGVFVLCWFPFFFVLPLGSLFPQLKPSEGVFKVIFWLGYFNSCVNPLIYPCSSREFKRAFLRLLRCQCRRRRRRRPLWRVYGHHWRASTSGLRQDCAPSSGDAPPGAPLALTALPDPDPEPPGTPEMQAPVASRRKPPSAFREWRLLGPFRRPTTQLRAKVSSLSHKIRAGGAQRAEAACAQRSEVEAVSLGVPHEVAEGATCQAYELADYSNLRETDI
# PROCEDURE TEXT: Agonist potency at Alpha-1D adrenergic receptor assayed in rat-1 fibroblasts expressing human Alpha-1D adrenergic receptor
# Format: functional
pEC50: −log10 of the molar value.
Assign pEC50 to each entry below.

Examples with their reported pEC50 follow.
// lookup pEC50 for `CCSc1ccccc1NCC1=NCCN1` 7.29

// lookup pEC50 for `CS(=O)(=O)c1cccc(F)c1NCC1=NCCN1` < 4.00

// lookup pEC50 for `CSc1ccc(C)cc1NCC1=NCCN1` 9.04

// lookup pEC50 for `Cc1ccc(S(C)(=O)=O)c(NCC2=NCCN2)c1` < 5.70

// lookup pEC50 for `CS(=O)(=O)c1cc(Cl)ccc1NCC1=NCCN1` < 4.00

Value sought for every listed compound: pEC50.
1. CCS(=O)(=O)c1ccccc1NCC1=NCCN1
2. O=S1(=O)CCCc2cccc(NCC3=NCCN3)c21
3. CC(C)Sc1ccccc1NCC1=NCCN1
4. CSc1cc(F)ccc1NCC1=NCCN1
5. COc1ccc(SC)c(NCC2=NCCN2)c1
6. CS(=O)(=O)c1ccc(C(F)(F)F)cc1NCC1=NCCN1
7. CS(=O)(=O)c1ccc(F)cc1NCC1=NCCN1
8. CSc1ccc(F)cc1NCC1=NCCN1

1: < 4.00; 2: < 4.00; 3: < 5.30; 4: 8.04; 5: 8.30; 6: < 4.00; 7: < 4.00; 8: 7.66

###

Assign Ki to each entry below.
# TARGET SYSTEM: Alpha-2B adrenergic receptor (Homo sapiens)
# Sequence (P18089 whole entry): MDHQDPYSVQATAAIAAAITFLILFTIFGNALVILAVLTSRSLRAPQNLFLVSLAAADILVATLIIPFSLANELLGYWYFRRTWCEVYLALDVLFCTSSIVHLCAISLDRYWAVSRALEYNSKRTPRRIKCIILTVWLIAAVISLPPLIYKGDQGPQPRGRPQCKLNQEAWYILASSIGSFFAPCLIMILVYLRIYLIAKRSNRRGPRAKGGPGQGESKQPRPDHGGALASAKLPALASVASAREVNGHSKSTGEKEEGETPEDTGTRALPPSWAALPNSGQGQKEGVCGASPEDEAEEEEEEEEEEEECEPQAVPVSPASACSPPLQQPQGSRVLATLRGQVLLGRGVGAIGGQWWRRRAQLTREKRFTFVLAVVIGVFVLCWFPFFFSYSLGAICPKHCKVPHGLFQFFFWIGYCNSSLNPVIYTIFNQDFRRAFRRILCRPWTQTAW

Examples with their reported Ki follow.
// lookup Ki for `CSc1ccccc1NCC1=NCCN1` 0.776 µM

// lookup Ki for `CSc1c(F)cccc1NCC1=NCCN1` 3.98 µM

// lookup Ki for `CC(C)Sc1ccccc1NCC1=NCCN1` 2.34 µM

// lookup Ki for `CS(=O)(=O)c1ccc(F)cc1NCC1=NCCN1` > 6.31 µM

// lookup Ki for `CCS(=O)(=O)c1ccccc1NCC1=NCCN1` > 6.31 µM

Value sought for every listed compound: Ki.
1. CSc1ccc(C)cc1NCC1=NCCN1
2. CS(=O)(=O)c1ccc(Cl)cc1NCC1=NCCN1

1: 0.977 µM; 2: > 6.31 µM

Value sought for every listed compound: Ki.
1. CC(C)S(=O)(=O)c1ccccc1NCC1=NCCN1
2. CCSc1ccccc1NCC1=NCCN1
3. CS(=O)(=O)c1c(F)cccc1NCC1=NCCN1
4. Cc1ccc(S(C)(=O)=O)c(NCC2=NCCN2)c1
5. CS(=O)(=O)c1cccc(F)c1NCC1=NCCN1
6. C[S+]([O-])c1ccccc1NCC1=NCCN1 (stereo not drawn)
7. COc1ccc(S(C)(=O)=O)c(NCC2=NCCN2)c1
8. CSc1ccc(C(F)(F)F)cc1NCC1=NCCN1

["> 6.31 µM", "1.62 µM", "> 6.31 µM", "> 6.31 µM", "> 6.31 µM", "> 6.31 µM", "> 6.31 µM", "1.66 µM"]

Value sought for every listed compound: Ki.
1. CSc1ccc(Cl)cc1NCC1=NCCN1
2. CS(=O)(=O)c1cc(Cl)ccc1NCC1=NCCN1
3. CS(=O)(=O)c1cc(F)ccc1NCC1=NCCN1

1: 0.676 µM; 2: > 6.31 µM; 3: > 6.31 µM

###

# TARGET SYSTEM: Alpha-1B adrenergic receptor (Homo sapiens)
# PROCEDURE TEXT: Affinity to human Alpha-1B adrenergic receptor determined by radioligand binding techniques from rat-1 fibroblasts membranes
pKi: −log10 of the molar value.
Would you mind labelling by pKi? At or over 6 is true (1), under is false (0).

Say whether `CS(=O)(=O)c1cc(Cl)ccc1NCC1=NCCN1` shows pKi of 6 or more. true (1)

Say whether `CS(=O)(=O)c1cc(F)ccc1NCC1=NCCN1` shows pKi of 6 or more. true (1)

Say whether `CS(=O)(=O)c1c(F)cccc1NCC1=NCCN1` shows pKi of 6 or more. false (0)

Say whether `CCSc1ccccc1NCC1=NCCN1` shows pKi of 6 or more. true (1)

Next:
Say whether `O=S1(=O)CCCc2cccc(NCC3=NCCN3)c21` shows pKi of 6 or more. false (0)

###

Assign pKi to each entry below.
# TARGET SYSTEM: Alpha-1B adrenergic receptor (Homo sapiens)
# Sequence (P35368 whole entry): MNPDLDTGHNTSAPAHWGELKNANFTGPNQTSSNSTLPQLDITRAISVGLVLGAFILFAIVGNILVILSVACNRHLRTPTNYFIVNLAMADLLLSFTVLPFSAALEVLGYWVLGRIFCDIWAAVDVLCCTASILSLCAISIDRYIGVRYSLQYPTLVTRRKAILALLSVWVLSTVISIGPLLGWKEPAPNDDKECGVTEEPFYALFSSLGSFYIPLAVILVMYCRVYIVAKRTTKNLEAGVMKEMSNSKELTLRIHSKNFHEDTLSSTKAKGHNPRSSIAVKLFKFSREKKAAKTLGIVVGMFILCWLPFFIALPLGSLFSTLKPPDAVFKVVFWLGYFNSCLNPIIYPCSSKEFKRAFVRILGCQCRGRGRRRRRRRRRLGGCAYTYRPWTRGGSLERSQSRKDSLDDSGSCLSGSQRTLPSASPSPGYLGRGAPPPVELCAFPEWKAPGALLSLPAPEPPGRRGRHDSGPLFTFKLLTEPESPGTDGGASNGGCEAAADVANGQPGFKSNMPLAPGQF
Numbers only, as −log10 of the molar value.

// lookup pKi for `CSc1c(F)cccc1NCC1=NCCN1` 6.62

// lookup pKi for `CC(C)Sc1ccccc1NCC1=NCCN1` 6.77

// lookup pKi for `CC(C)S(=O)(=O)c1ccccc1NCC1=NCCN1` 6.00

// lookup pKi for `CS(=O)(=O)c1ccc(Cl)cc1NCC1=NCCN1` 5.53

Value sought for every listed molecule: pKi.
1. C[S+]([O-])c1ccccc1NCC1=NCCN1 (stereo unspecified)
2. CSc1ccc(C)cc1NCC1=NCCN1

1: 6.10; 2: 6.91

###

Assign Ki to each entry below.
# TARGET SYSTEM: Alpha-1B adrenergic receptor (Homo sapiens)

Examples with their reported Ki follow.
Please tell me: Ki of `CS(=O)(=O)c1cccc(F)c1NCC1=NCCN1` , system Alpha-1B adrenergic receptor (Homo sapiens)? 0.38 µM

Please tell me: Ki of `CSc1ccc(C(F)(F)F)cc1NCC1=NCCN1` , system Alpha-1B adrenergic receptor (Homo sapiens)? 2.04 µM

Please tell me: Ki of `COc1ccc(S(C)(=O)=O)c(NCC2=NCCN2)c1` , system Alpha-1B adrenergic receptor (Homo sapiens)? 4.57 µM

Please tell me: Ki of `CSc1ccc(Cl)cc1NCC1=NCCN1` , system Alpha-1B adrenergic receptor (Homo sapiens)? 0.0692 µM

Please tell me: Ki of `CS(=O)(=O)c1ccccc1NCC1=NCCN1` , system Alpha-1B adrenergic receptor (Homo sapiens)? 1.29 µM

Please tell me: Ki of `CCS(=O)(=O)c1ccccc1NCC1=NCCN1` , system Alpha-1B adrenergic receptor (Homo sapiens)? 0.912 µM

For the next question, use this compound.
Please tell me: Ki of `Cc1ccc(S(C)(=O)=O)c(NCC2=NCCN2)c1` , system Alpha-1B adrenergic receptor (Homo sapiens)? 3.47 µM
